- TARGET SYSTEM: Des1 (Homo sapiens)
- PROTOCOL TEXT: Jurkat T cell measurement of conversion of dihydroceramide to ceramide (Des1 activity, LC-MS/MS of NBD-C6-ceramide)
- Assay type: cell-based
- Set-up: endogenous in cells; host or cells: Jurkat clone E6-1
- CONDITION SET: 0.5 uM compound; Jurkat clone E6-1 cells, 10 μM NBD-C6-dihydroceramide, 3 hours at 37° C.; read-out: Des1 % Inhib (0.5 uM)
MEASURED ATTRIBUTE: inhibition at 0.5 µM

The cases that follow already have their inhibition at 0.5 µM on record.
Can you share its inhibition at 0.5 µM? I mean this molecule: O=S(=O)(Nc1ccc(O)cn1)N1CCN(c2ccc(C(F)(F)F)cc2)CC1 91.2%

Do the same for O=C(Nc1ccc(O)cn1)O[C@H]1CC[C@H](c2ccccc2)CC1 please 97%

Do the same for CC(C)c1ccc(S(=O)(=O)Nc2ccc(O)cn2)cc1 please 37.5%

Next:
Can you share its inhibition at 0.5 µM? I mean this molecule: CC(C)(C)c1ccc(S(=O)(=O)Nc2ccc(O)cn2)cc1 69.4%

Do the same for O=C(Nc1ccc(O)cn1)NC1CCCCC1 please 69.3%

Do the same for O=C(Nc1ccc(O)cn1)N[C@H]1CC[C@H](c2ccccc2)CC1 please 76.7%

Do the same for O=S(=O)(Nc1ccc(O)cn1)C1CCN(c2ccc(Cl)cc2)CC1 please 92.4%

Do the same for O=C(Nc1ccc(O)cn1)N1CCN(c2cnn(-c3ccccc3)c2)CC1 please 56.9%

Do the same for O=S(=O)(Nc1ccc(O)cn1)N1CCN(c2ccc(Cl)cn2)CC1 please 41.9%

* * *

- TARGET SYSTEM: Des1 (Homo sapiens, UniProt O15121)
- Sequence (O15121 1-323): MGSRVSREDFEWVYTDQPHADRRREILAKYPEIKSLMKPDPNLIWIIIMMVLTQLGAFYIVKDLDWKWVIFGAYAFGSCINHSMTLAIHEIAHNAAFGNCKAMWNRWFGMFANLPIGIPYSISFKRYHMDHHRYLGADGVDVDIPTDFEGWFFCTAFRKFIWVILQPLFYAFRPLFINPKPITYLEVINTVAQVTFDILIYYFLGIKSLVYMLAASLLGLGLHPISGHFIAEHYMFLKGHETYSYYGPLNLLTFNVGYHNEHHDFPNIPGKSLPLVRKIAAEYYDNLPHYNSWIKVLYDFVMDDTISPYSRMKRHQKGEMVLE
- PROTOCOL TEXT: Jurkat T cell measurement of conversion of dihydroceramide to ceramide (Des1 activity, LC-MS/MS of NBD-C6-ceramide)
- Type: cell-based
- Parameters: endogenous in cells; host or cells: Jurkat clone E6-1
- CONDITION SET: Jurkat clone E6-1 cells, 10 μM NBD-C6-dihydroceramide, 3 hours at 37° C.; read-out: Des1 IC50
MEASURED ATTRIBUTE: IC50

Can you share its IC50? I mean this compound: O=C(Nc1ccc(O)cn1)N1CCN(c2ccc(F)cn2)CC1 64 to 94 nM

Do the same for O=S(=O)(Nc1ccc(O)cn1)N1CCN(c2ccc(C(F)(F)F)cc2)CC1 please 62 to 86 nM

Here is another compound to look at.
Can you share its IC50? I mean this compound: O=C(OCc1ccccc1)N1CCC(S(=O)(=O)Nc2ccc(O)cn2)CC1 > 1000 nM

* * *

- TARGET SYSTEM: UniProtKB O15121
- Sequence (O15121 1-323): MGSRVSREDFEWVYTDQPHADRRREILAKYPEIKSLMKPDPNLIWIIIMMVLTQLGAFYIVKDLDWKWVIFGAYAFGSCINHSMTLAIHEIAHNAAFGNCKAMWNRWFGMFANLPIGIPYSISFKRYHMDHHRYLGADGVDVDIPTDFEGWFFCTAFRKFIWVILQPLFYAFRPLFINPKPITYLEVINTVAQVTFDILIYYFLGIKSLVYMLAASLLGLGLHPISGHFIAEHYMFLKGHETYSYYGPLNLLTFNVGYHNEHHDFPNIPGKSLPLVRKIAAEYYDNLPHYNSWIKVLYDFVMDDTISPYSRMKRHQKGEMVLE
- PROTOCOL TEXT: Jurkat T cell measurement of conversion of dihydroceramide to ceramide (Des1 activity, LC-MS/MS of NBD-C6-ceramide)
- Assay type: cell-based
- Parameters: endogenous in cells; host or cells: Jurkat clone E6-1
- CONDITION SET: 0.5 uM compound; Jurkat clone E6-1 cells, 10 μM NBD-C6-dihydroceramide, 3 hours at 37° C.; read-out: Des1 % Inhib (0.5 uM)
MEASURED ATTRIBUTE: inhibition at 0.5 µM (%)
Dear colleague, please return just the value in %, with no unit written.

Can you share its inhibition at 0.5 µM? I mean this molecule: O=C(Nc1ccc(O)cn1)N1CCC(c2ccc(Cl)cc2)CC1 [Example 4] 94.3

Do the same for O=C(Nc1ccc(O)cn1)N1CCN(c2ccc(C(F)(F)F)cn2)CC1 [Example 18] please 96.6

Do the same for O=C(Nc1ccc(O)cn1)N1CCN(Cc2ccc(F)c(F)c2)CC1 [Example 77] please 91.9

Do the same for O=C(Oc1ccc(O)cn1)N1CCN(c2ccc(C(F)(F)F)cn2)CC1 [Example 88] please 92.7

Do the same for O=C(Nc1ccc(O)cn1)N1CCN(c2ccc(F)nc2)CC1 [Example 50] please 83

Do the same for O=C(Nc1ccc(O)cn1)OC1CCN(c2ccc(C(F)(F)F)cn2)CC1 [Example 60] please 96

* * *

- TARGET SYSTEM: Des1 (Homo sapiens, UniProt O15121)
- Sequence (O15121 1-323): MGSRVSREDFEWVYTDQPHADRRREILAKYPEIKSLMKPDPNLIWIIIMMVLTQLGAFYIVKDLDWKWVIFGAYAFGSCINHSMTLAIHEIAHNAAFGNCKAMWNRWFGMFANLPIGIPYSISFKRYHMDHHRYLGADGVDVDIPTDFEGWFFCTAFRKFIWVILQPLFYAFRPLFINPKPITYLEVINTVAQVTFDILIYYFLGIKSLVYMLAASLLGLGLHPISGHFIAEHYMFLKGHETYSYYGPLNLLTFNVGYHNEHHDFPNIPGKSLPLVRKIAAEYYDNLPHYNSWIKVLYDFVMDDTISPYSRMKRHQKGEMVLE
- PROTOCOL TEXT: Jurkat T cell measurement of conversion of dihydroceramide to ceramide (Des1 activity, LC-MS/MS of NBD-C6-ceramide)
- Assay type: cell-based
- Parameters: endogenous in cells; host or cells: Jurkat clone E6-1
- CONDITION SET: 0.5 uM compound; Jurkat clone E6-1 cells, 10 μM NBD-C6-dihydroceramide, 3 hours at 37° C.; read-out: Des1 % Inhib (0.5 uM)
We use 90% as the dividing line for inhibition at 0.5 µM: on or above the line is T, below is F.

Field: example entries. Status: answers known.
Please indicate if the recorded inhibition at 0.5 µM for O=C(Nc1ccc(O)cn1)OC1CCN(c2ccc(Cl)cc2Cl)CC1 meets or exceeds 90%. T

Do the same for O=S(=O)(Nc1ccc(O)cn1)N1CCN(c2ccc(Cl)cc2)CC1 please F

Do the same for O=C(Nc1ccc(O)cn1)OC1CCN(c2ccc(F)cn2)CC1 please T

Do the same for O=C(Nc1ccc(O)cn1)N1CCCN(c2ccc(C(F)(F)F)cn2)CC1 please F

Field: next molecule
Please indicate if the recorded inhibition at 0.5 µM for O=C(Nc1ccc(O)cn1)OC1CCCCC1 meets or exceeds 90%. F
